- System: HL-60(TB) leukemia
- procedure_text: NCI tumour cell line growth inhibition, 48 h
assay_metric: TGI (µM)
Numbers only here, please. The scale is µM.

# compound, measurement
rows = [
    ("C/C=C/C1=CN2C(=O)c3cc(OC4OC(C)C(NC)C(C)(O)C4O)c(C)cc3N=C[C@@H]2C1 (stereo partly drawn)", 0.101),
]

Which TGI value belongs to "COc1ccc(Nc2nc3cc(C(F)(F)F)ccc3n3cccc23)cc1OC" ?
67

Now consider CC(=O)OC(C)(C)C1O[C@@]23OC1C[C@@H](C)[C@@H]2[C@@]1(C)CC[C@@]24C[C@@]25CC[C@H](OC2OCC(O)C(O)C2O)C(C)(C)[C@@H]5CCC4[C@]1(C)[C@H]3O (stereo partly drawn) .
5.48
